# Tested on: MDR1-MDCK cell monolayers
# condition.description: dog, MDCK-MDR1, 120 min, 5 μM, pH 7.4
Please provide measured MDCK-MDR1: % Recov A-B (%) for the entries that follow.
State the result as a value with its unit after it.

Reference set (4 entries):
>>> measured("COc1cc(-c2ccc(-c3cnc(N(C)[C@@H]4CC5CC[C@H](N5)[C@@H]4F)cn3)c(O)c2)ncn1 (single isomer, unassigned)")
"21%"
>>> measured("CNC(=O)/C=C/c1cc(O)c(-c2cnc(N(C)[C@H]3C[C@]4(C)CC[C@@](C)(N4)[C@H]3F)cn2)cc1F")
"86%"
>>> measured("CN(C)C(=O)c1cc2cc(O)c(-c3cnc(N(C)[C@@H]4C[C@H]5CCC(N5)[C@@H]4F)cn3)cc2o1 (single isomer, unassigned)")
"91%"
>>> measured("Cn1cc(-c2ccc(-c3cnc(N(C4CC4)[C@H]4C[C@]5(C)CC[C@@](C)(N5)[C@H]4F)cn3)c(O)c2)cn1")
"38%"

For every listed record, write down its MDCK-MDR1: % Recov A-B (%).
1. CN(C)C(=O)c1cc2cc(O)c(-c3cnc(N(C)[C@H]4CC5CC[C@@H](N5)[C@H]4F)cn3)cc2o1 (single isomer, unassigned)
2. COc1cc(-c2ccc(-c3cnc(N(C4CC4)[C@H]4C[C@@H]5CCC(N5)[C@H]4F)cn3)c(O)c2)ncn1 (single isomer, unassigned)
3. COc1cc(-c2ccc(-c3cnc(N(C)[C@@H]4CC5COC[C@H](N5)[C@@H]4F)cn3)c(O)c2)cnn1 (single isomer, unassigned)
4. Cn1cc(-c2ccc(-c3cnc(N(C4CC4)[C@@H]4C[C@@]5(C)CC[C@](C)(N5)[C@@H]4F)cn3)c(O)c2)cn1

Response:
90%
14%
88%
40%

For every listed record, write down its MDCK-MDR1: % Recov A-B (%).
1. Cc1cc(-c2ccc(-c3cnc(N(C)[C@H]4C[C@@H]5CCC(N5)[C@H]4F)cn3)c(O)c2)cc(=O)[nH]1 (single isomer, unassigned)
2. CN(c1cnc(-c2ccc(-c3cn[nH]c3)cc2O)cn1)[C@H]1C[C@]2(C)CCC[C@@](C)(N2)[C@H]1F
3. O=c1cc(-c2cc(O)c(-c3cnc(N(C4CC4)[C@@H]4CC5CC[C@H](N5)[C@@H]4F)cn3)cc2F)ccn1CF (single isomer, unassigned)
4. CN(c1cnc(-c2cc(F)c(-c3cnn(CF)c3)cc2O)cn1)[C@H]1C[C@@H]2CCC(N2)[C@H]1F (single isomer, unassigned)
5. CN(c1cnc(-c2ccc(-c3cc(=O)n(C)cn3)cc2O)cn1)[C@H]1C[C@@H]2CCC(N2)[C@H]1F (single isomer, unassigned)

Response:
1: 44%; 2: 39%; 3: 70%; 4: 31%; 5: 84%
